// data source = patent EP4656642A1

biological target: ERα (Homo sapiens); experiment: Degradation of ERα in T-47D cells (immunoblotting, 4 h); format: cell-based; parameters: host or cells: T-47D; conditions: 1nM compound
Sequence (P03372 whole entry): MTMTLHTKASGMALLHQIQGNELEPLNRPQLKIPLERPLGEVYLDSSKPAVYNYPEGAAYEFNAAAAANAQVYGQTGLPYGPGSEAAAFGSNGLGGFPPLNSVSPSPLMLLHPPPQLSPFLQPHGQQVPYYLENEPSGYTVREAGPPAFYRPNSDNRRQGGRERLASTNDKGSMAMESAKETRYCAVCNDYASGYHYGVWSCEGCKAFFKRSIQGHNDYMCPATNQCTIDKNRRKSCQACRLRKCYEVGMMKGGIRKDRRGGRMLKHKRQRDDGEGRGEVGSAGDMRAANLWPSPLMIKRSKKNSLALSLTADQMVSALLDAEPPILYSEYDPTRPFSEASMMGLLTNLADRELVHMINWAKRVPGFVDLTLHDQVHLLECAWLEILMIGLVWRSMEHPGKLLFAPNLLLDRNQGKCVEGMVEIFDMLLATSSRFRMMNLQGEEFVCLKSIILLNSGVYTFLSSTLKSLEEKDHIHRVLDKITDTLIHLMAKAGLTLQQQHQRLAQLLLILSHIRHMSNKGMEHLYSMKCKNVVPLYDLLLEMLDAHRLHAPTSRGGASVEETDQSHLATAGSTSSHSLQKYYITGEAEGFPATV
Property: Degradation rate (%) of ERα in T-47D cells

- COC(=O)[C@H]1CC(N2CCC3(CC2)COc2c3ccc3c2CN(C2CCC(=O)NC2=O)C3=O)CCN1CC1CCN(c2ccc([C@@H]3c4ccc(O)cc4CC[C@@H]3c3ccccc3)cc2)CC1 (some centres unmarked) [J7]: 16
- O=C1CCC(N2Cc3ccc4c(c3C2=O)OCC42CCN(C3CC4(CCN(c5ccc([C@@H]6c7ccc(O)cc7CC[C@@H]6c6ccccc6)cc5)CC4)C3)CC2)C(=O)N1 (some centres unmarked) [L26]: -11
- CC1Cc2c(ccc3[nH]ncc23)C(c2c(F)cc(N3CCC4(CC3)CC(N3CCC(N5CCC6(CC5)COc5c6ccc6c5CN(C5CCC(=O)NC5=O)C6=O)C(F)C3)C4)cc2F)N1CC(F)F (centres unmarked) [G22]: 34
- O=C1CCC(N2Cc3cc4c(cc3C2=O)CCC2(CN(CC3CCN(c5ccc([C@@H]6c7ccc(O)cc7CC[C@@H]6c6ccccc6)cc5)CC3)C2)O4)C(=O)N1 (some centres unmarked) [H2]: -11
- CN(C[C@H]1CC[C@H](C(=O)N2CCC3(CC2)COc2c3ccc3c2CN(C2CCC(=O)NC2=O)C3=O)CC1)[C@H]1CCN(c2ccc([C@@H]3c4ccc(O)cc4CC[C@@H]3c3ccccc3)cc2)C[C@H]1F (some centres unmarked) [D13]: 54
- O=C1CCC(N2Cc3c(ccc4c3OCC43CCN(CC(=O)N4CCC5(CCC(C#Cc6ccc([C@@H]7c8ccc(O)cc8CC[C@@H]7c7ccccc7)cc6)CC5)CC4)CC3)C2=O)C(=O)N1 (some centres unmarked) [B29]: -11
- CN(CC(=O)N1CCC2(CC1)COc1c2ccc2c1C(=O)N(C1CCC(=O)NC1=O)C2=O)C1CCC2(CC1)CN(c1ccc([C@@H]3c4ccc(O)cc4CC[C@@H]3c3ccccc3)cc1)C2 (some centres unmarked) [C19]: 32
- O=C1CCC(N2Cc3c(ccc4c3OCC43CCN(C4CC5CC4CN5C(=O)C4CCN(c5ccc([C@@H]6c7ccc(O)cc7CC[C@@H]6c6ccccc6)cc5)CC4)CC3)C2=O)C(=O)N1 (some centres unmarked) [D2]: 61
- CN(CC(=O)N1CCC2(CC1)COc1c2ccc2c1CN(C1CCC(=O)NC1=O)C2=O)C1CC2(CCN(c3ccc([C@@H]4c5ccc(O)cc5CC[C@@H]4c4ccccc4)cc3)CC2)C1 (some centres unmarked) [H48]: 53
- CC1(C(=O)N2CCC(N3CCC4(CC3)COc3c4ccc4c3CN(C3CCC(=O)NC3=O)C4=O)CC2)CCN(c2ccc([C@@H]3c4ccc(O)cc4CC[C@@H]3c3ccccc3)cc2)CC1 (some centres unmarked) [N1]: 58
- C[C@H]1CN(C2CC3(CCN(c4ccc([C@@H]5c6ccc(O)cc6CC[C@@H]5c5ccccc5)cc4)CC3)C2)CC[C@H]1N1CCC2(CC1)COc1c2ccc2c1CN(C1CCC(=O)NC1=O)C2=O (some centres unmarked) [H39]: 15
- C[C@@H]1Cc2c(ccc3[nH]ncc23)C(c2ccc(N3CCC4(CCN(C(=O)CN5CCC6(CC5)COc5c6ccc6c5CN(C5CCC(=O)NC5=O)C6=O)C4)CC3)cn2)N1CC(F)(F)F (some centres unmarked) [J14]: 55
- O=C1CCC(N2C(=O)c3ccc4c(c3C2=O)OCC42CCN(C3CCC4(CC3)CN(c3ccc([C@@H]5c6ccc(O)cc6CC[C@@H]5c5ccccc5)cc3)C4)CC2)C(=O)N1 (some centres unmarked) [L7]: 11
- O=C1CCC(N2Cc3c(ccc4c3OCC43CCN(C4CC5CCCC(C4)N5C(=O)C4CCN(c5ccc([C@@H]6c7ccc(O)cc7CC[C@@H]6c6ccccc6)cc5)CC4)CC3)C2=O)C(=O)N1 (some centres unmarked) [D1]: 34
- C[C@@H]1C[C@H](N2CCC3(CC2)COc2c3ccc3c2CN(C2CCC(=O)NC2=O)C3=O)CCN1C1CC2(CCN(c3ccc([C@@H]4c5ccc(O)cc5CC[C@@H]4c4ccccc4)cc3)CC2)C1 (some centres unmarked) [H30]: 37
- O=C1CCC(N2C(=O)c3ccc4c(c3C2=O)OCC42CCN(C(=O)CN3CCC4(CC3)CCN(c3ccc([C@@H]5c6ccc(O)cc6CC[C@@H]5c5ccccc5)cc3)CC4)CC2)C(=O)N1 (some centres unmarked) [A68]: 35
- CCOC(=O)[C@H]1CC(N2CCC3(CC2)COc2c3ccc3c2CN(C2CCC(=O)NC2=O)C3=O)CCN1C1CC2(CCN(c3ccc([C@@H]4c5ccc(O)cc5CC[C@@H]4c4ccccc4)cc3)CC2)C1 (some centres unmarked) [A113]: 26
- O=C1CCC(N2Cc3c(ccc4c3OCC43CCN(C(=O)C4CCC5(CC4)CCN(c4ccc([C@@H]6c7ccc(O)cc7CC[C@@H]6c6ccccc6)cc4)CC5)CC3)C2=O)C(=O)N1 (some centres unmarked) [L27]: 12
- C[C@H]1CN(c2ccc([C@@H]3c4ccc(O)cc4CC[C@@H]3c3ccccc3)cc2)CCN1C[C@H]1CC[C@H](C(=O)N2CCC3(CC2)COc2c3ccc3c2CN(C2CCC(=O)NC2=O)C3=O)CC1 (some centres unmarked) [B36]: 54
- O=C1CCC(N2Cc3c(ccc4c3OCC43CCN(C4CCN(C(=O)C5CCN(c6ccc([C@@H]7c8ccc(O)cc8CC[C@@H]7c7ccccc7)cc6)CC5)CC4)CC3)C2=O)C(=O)N1 (some centres unmarked) [A78]: 79
